# system: IRR (Homo sapiens, UniProt P14616)
# Sequence (P14616 27-1297): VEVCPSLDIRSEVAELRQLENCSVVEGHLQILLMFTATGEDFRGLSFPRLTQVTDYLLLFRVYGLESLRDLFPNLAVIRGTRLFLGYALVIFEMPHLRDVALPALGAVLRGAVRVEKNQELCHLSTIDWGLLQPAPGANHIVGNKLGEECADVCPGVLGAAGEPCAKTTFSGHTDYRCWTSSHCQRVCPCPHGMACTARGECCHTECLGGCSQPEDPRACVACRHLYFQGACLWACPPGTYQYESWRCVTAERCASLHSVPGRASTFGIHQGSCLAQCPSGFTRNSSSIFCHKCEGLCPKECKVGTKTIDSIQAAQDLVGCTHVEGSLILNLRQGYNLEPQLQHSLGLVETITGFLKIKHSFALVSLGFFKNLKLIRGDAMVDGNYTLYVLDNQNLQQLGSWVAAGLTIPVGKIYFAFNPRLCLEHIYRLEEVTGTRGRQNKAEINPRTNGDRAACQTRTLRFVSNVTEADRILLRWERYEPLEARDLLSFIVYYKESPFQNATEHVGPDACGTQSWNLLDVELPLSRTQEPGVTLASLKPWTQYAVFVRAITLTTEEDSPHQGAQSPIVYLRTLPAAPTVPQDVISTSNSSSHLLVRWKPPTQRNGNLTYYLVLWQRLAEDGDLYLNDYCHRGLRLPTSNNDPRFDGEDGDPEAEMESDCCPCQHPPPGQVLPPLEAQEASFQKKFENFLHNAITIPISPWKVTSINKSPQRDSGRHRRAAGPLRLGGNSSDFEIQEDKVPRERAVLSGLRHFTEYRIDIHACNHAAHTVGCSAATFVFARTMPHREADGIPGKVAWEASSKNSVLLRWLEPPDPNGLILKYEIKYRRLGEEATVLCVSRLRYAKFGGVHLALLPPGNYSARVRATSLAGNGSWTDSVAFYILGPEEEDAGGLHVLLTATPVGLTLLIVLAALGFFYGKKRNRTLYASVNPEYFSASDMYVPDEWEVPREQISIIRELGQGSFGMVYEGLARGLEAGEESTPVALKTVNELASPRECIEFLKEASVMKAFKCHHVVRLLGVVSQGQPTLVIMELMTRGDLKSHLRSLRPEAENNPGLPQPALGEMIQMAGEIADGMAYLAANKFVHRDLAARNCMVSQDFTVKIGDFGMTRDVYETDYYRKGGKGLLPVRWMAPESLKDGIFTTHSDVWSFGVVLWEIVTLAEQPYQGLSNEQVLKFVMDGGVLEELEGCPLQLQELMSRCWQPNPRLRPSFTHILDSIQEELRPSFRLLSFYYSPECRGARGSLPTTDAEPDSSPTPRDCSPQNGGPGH
# measurement protocol: Kinase panel: IRR
# Assay type: biochemical, human/mammalian
# condition summary: compound at 10 μM, read-out: % of activity respect of the control
Form field: remaining activity at 10 µM (one value per entry).
Express it in %; write the number only.

C[C@H](c1ccccc1)n1c(=O)[nH]c2ncc(-c3ccccc3)nc21 [Compound 14] :: 112
O=c1[nH]c2ncc(-c3ccc(F)cc3)nc2n1CC1CC1 [Compound 10] :: 104
O=c1[nH]c2ncc(-c3ccc(F)cc3)nc2n1C1CCCCC1 [Compound 12] :: 83

Now for another entry.
GET /values?readout=remaining activity at 10 µM&item= CC(c1ccccc1)n1c(=O)[nH]c2ncc(-c3ccc(F)cc3)nc21 (stereo not shown) [Compound 1] 96
